Target: dopamine autoreceptor (D2) (Rattus norvegicus, UniProt P61169)
Construct: homogenized rat striatal brain tissue is incubated with
Sequence (P61169 whole entry): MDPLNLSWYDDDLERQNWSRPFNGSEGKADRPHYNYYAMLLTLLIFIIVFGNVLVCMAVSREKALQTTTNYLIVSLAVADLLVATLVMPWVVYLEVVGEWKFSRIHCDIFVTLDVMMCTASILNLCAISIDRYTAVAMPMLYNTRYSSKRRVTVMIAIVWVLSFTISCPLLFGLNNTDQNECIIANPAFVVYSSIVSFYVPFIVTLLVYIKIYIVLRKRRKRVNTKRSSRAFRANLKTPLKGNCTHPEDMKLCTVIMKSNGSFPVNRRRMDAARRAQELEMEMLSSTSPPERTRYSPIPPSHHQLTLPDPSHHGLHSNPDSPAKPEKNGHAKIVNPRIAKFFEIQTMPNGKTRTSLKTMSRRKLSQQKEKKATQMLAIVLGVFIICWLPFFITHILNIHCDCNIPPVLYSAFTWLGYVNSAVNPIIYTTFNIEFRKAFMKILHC
Test: Affinity for the dopamine autoreceptor: 3H-quinpirole (Quin.) binding in homogenized rat striatal brain tissue
result.type: pIC50
One number for each entry, as −log10 of the molar value.

For record CCCNCC1CCc2ccc(NS(C)(=O)=O)cc2O1 (stereo not shown) the listed pIC50 is 6.74

# credit: patent US5663194A
